# Tested on: MDA-MB-231 breast
# ASSAY_EXPLANATION: NCI tumour cell line growth inhibition, 48 h
Exercise: state measured TGI for each of the compounds provided.

Report measured TGI; entry is CCOC(=O)C1=c2[nH]c3cccc4cccc(c43)n2C(=O)CC1c1ccccc1 (stereo not drawn)
> 100 µM

Report measured TGI; entry is CN(C)c1ccc(-c2c(C#N)c(O)n(NS(=O)(=O)c3ccccc3)c(=O)c2C#N)cc1
> 100 µM

Report measured TGI; entry is Cn1cc(S(=O)(=O)NC(=O)Nc2ccc(Cl)cc2)c2ccccc21
> 100 µM

----------
# Tested on: RPMI-8226 leukemia
# ASSAY_EXPLANATION: NCI tumour cell line growth inhibition, 48 h
METRIC: TGI (µM)
Report the value in µM with no unit label.

Report measured TGI; entry is N=C(N)SCc1cc(Cl)cc(Cl)c1O
47.5

Report measured TGI; entry is C=C1CCC2C3(C)COC(c4c(OC)cccc4OC)OC3CCC2(C)C1C/C=C1/C(=O)OCC1O (stereo not given)
5.67

----------
Exercise: state measured TGI for each of the compounds provided.
# Test system: OVCAR-3 ovarian
# ASSAY_EXPLANATION: NCI tumour cell line growth inhibition, 48 h

Report measured TGI; entry is COc1cc(C(=O)C2C(=O)c3ccccc3C2C2(O)c3ccccc3CC2C(O)c2cc(OC)c(OC)c(OC)c2)cc(OC)c1OC (stereo not given)
> 100 µM

Report measured TGI; entry is COC(=O)N/N=C(\C(=O)Nc1cccc([N+](=O)[O-])c1)c1nc2ccc([N+](=O)[O-])cc2[nH]c1=O
> 100 µM

Report measured TGI; entry is NNC1=N/C(=C\c2ccco2)C(=O)N1
> 100 µM

Report measured TGI; entry is COc1cccc(C2ON=C(c3ccccc3)N2C23CC4CC(CC(C4)C2)C3)c1 (stereo not given)
> 10 µM

Report measured TGI; entry is COc1cc2c(cc1OC)CN1CCCc3cc(OC)c(OC)cc3C1C2 (stereo not given)
> 100 µM

Report measured TGI; entry is COC1=C(Br)C(O)C2(C=C1Br)CC(C(=O)NCCCCNC(=O)C1=NOC3(C=C(Br)C(OC)=C(Br)C3O)C1)=NO2 (stereo not given)
39.4 µM

Report measured TGI; entry is O=C(N/C(=C\c1ccc(/C=C(\NC(=O)c2ccccc2)c2nc3cc(Cl)ccc3[nH]2)cc1)c1nc2cc(Cl)ccc2[nH]1)c1ccccc1
> 100 µM

Report measured TGI; entry is CSc1ccc(OCC2OC2O)cc1 (stereo not given)
> 100 µM

Report measured TGI; entry is Cc1cc(=O)[nH]c2cc(NC(=O)C(CCCN=C(N)N)NC(=O)OCc3ccccc3)ccc12 (stereo not given)
> 100 µM

Report measured TGI; entry is CC(=O)OC1CC2(C)OC(Cc3ccccc32)O1 (stereo not given)
> 100 µM

Report measured TGI; entry is Cc1nc2c(cc1C(=O)N/N=C/c1ccc([N+](=O)[O-])cc1)c(=O)n(C)c(=O)n2C
> 100 µM

Report measured TGI; entry is CCCCCc1cc[n+](CC(=O)c2ccc([N+](=O)[O-])cc2)cc1
10.4 µM

Report measured TGI; entry is COc1ccc(N2C(=O)c3c(c4[nH]c5ccc(OC)cc5c4c4ccc(C(C)(C)C)cc34)C2=O)cc1
> 100 µM

Report measured TGI; entry is N=C(N)SCc1cc(Cl)cc(Cl)c1O
31.4 µM

Report measured TGI; entry is O=C1C=CC(=Nc2ccccc2)c2ccccc21
7.23 µM
